Data provenance: paper PMC3443293

biological target: the molecule itself; experiment: AUC
Decide using Kd alone. Strictly below 20 µM: Met. Equal to or above 20 µM: Not met.

Please indicate whether the reported Kd of human nectin-2 ectodomain (D1-D3) (domain or fragment, natively glycosylated) QDVRVQVLPEVRGQLGGTVELPCHLLPPVPGLYISLVTWQRPDAPANHQNVAAFHPKMGPSFPSPKPGSERLSFVSAKQSTGQDTEAELQDATLALHGLTVEDEGNYTCEFATFPKGSVRGMTWLRVIAKPKNQAEAQKVTFSQDPTTVALCISKEGRPPARISWLSSLDWEAKETQVSGTLAGTVTVTSRFTLVPSGRADGVTVTCKVEHESFEEPALIPVTLSVRYPPEVSISGYDDNWYLGRTDATLSCDVRSNPEPTGYDWSTTSGTFPTSAVAQGSQLVIHAVDSLFNTTFVCTVTNAVGMGRAEQVIFVRETP is strictly below 20 µM.
Met

Please indicate whether the reported Kd of human nectin-1 ectodomain (D1-D3) (domain or fragment, natively glycosylated (N-linked glycans)) QVVQVNDSMYGFIGTDVVLHCSFANPLPSVKITQVTWQKSTNGSKQNVAIYNPSMGVSVLAPYRERVEFLRPSFTDGTIRLSRLELEDEGVYICEFATFPTGNRESQLNLTVMAKPTNWIEGTQAVLRAKKGQDDKVLVATCTSANGKPPSVVSWETRLKGEAEYQEIRNPNGTVTVISRYRLVPSREAHQQSLACIVNYHMDRFKESLTLNVQYEPEVTIEGFDGNWYLQRMDVKLTCKADANPPATEYHWTTLNGSLPKGVEAQNRTLFFKGPINYSLAGTYICEATNPIGTRSGQVEVNITEFP is strictly below 20 µM.
Met

Please indicate whether the reported Kd of human nectin-4 ectodomain (D1-D3) (domain or fragment, natively glycosylated) GELETSDVVTVVLGQDAKLPCFYRGDSGEQVGQVAWARVDAGEGAQELALLHSKYGLHVSPAYEGRVEQPPPPRNPLDGSVLLRNAVQADEGEYECRVSTFPAGSFQARLRLRVLVPPLPSLNPGPALEEGQGLTLAASCTAEGSPAPSVTWDTEVKGTTSSRSFKHSRSAAVTSEFHLVPSRSMNGQPLTCVVSHPGLLQDQRITHILHVSFLAEASVRGLEDQNLWHIGREGAMLKCLSEGQPPPSYNWTRLDGPLPSGVRVDGDTLGFPPLTTEHSGIYVCHVSNEFSSRDSQVTVDVLDPQ is strictly below 20 µM.
Not met

Please indicate whether the reported Kd of mouse nectin-4 ectodomain (D1-D3) (domain or fragment, natively glycosylated) GELETSDVVTVVLGQDAKLPCFYRGDPDEQVGQVAWARVDPNEGIRELALLHSKYGLHVNPAYEDRVEQPPPPRDPLDGSVLLRNAVQADEGEYECRVSTFPAGSFQARMRLRVLVPPLPSLNPGPPLEEGQGLTLAASCTAEGSPAPSVTWDTEVKGTQSSRSFTHPRSAAVTSEFHLVPSRSMNGQPLTCVVSHPGLLQDRRITHTLQVAFLAEASVRGLEDQNLWQVGREGATLKCLSEGQPPPKYNWTRLDGPLPSGVRVKGDTLGFPPLTTEHSGVYVCHVSNELSSRDSQVTVEVLDPEDPG is strictly below 20 µM.
Not met

Please indicate whether the reported Kd of mouse nectin-1 ectodomain (D1-D3) (domain or fragment, natively glycosylated) QVVQVNDSMYGFIGTDVVLHCSFANPLPSVKITQVTWQKASNGSKQNMAIYNPTMGVSVLPPYEKRVEFLRPSFIDGTIRLSGLELEDEGMYICEFATFPTGNRESQLNLTVMAKPTNWIEGTRAVLRARKGQDDKVLVATCTSANGKPPSAVSWETRLKGEAEYQEIRNPNGTVTVISRYRLVPSREAHRQSLACIVNYHLDRFRESLTLNVQYEPEVTIEGFDGNWYLQRTDVKLTCKADANPPATEYHWTTLNGSLPKGVEAQNRTLFFRGPITYSLAGTYICEATNPIGTRSGQVEVNITEFP is strictly below 20 µM.
Not met

Please indicate whether the reported Kd of mouse nectin-2 D1-2 fragment (domain or fragment, natively glycosylated (N-linked glycans)) QDVRVRVLPEVRGRLGGTVELPCHLLPPTTERVSQVTWQRLDGTVVAAFHPSFGVDFPNSQFSKDRLSFVRARPETNADLRDATLAFRGLRVEDEGNYTCEFATFPNGTRRGVTWLRVIAQPENHAEAQEVTIGPQSVAVARCVSTGGRPPARITWISSLGGEAKDTQEPGIQAGTVTIISRYSLVPVGRADGVKVTCRVEHESFEEPILLPVTLSVRY is strictly below 20 µM.
Met
